Biological target: purified human, His-tagged PRC2 complex (Homo sapiens, UniProt O75530+Q15910)
Sequence (Q15910 whole entry): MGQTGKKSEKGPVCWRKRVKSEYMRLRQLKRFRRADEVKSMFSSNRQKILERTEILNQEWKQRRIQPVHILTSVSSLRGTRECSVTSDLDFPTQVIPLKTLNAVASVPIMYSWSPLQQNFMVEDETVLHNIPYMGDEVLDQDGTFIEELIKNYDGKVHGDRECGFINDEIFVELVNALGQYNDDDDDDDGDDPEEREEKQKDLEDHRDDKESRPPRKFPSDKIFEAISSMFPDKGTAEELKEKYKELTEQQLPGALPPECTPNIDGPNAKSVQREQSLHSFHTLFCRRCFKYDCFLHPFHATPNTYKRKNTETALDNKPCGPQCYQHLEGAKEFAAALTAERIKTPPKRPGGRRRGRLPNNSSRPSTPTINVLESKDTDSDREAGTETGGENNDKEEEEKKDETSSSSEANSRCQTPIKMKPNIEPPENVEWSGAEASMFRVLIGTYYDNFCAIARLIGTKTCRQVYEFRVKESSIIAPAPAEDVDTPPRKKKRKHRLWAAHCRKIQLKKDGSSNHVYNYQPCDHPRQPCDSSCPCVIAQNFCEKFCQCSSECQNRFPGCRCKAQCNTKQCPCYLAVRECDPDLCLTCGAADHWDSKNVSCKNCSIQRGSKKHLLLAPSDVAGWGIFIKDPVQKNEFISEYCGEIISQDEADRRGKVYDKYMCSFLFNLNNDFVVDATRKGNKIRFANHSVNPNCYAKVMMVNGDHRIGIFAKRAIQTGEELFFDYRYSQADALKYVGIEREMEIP
Sequence (O75530 whole entry): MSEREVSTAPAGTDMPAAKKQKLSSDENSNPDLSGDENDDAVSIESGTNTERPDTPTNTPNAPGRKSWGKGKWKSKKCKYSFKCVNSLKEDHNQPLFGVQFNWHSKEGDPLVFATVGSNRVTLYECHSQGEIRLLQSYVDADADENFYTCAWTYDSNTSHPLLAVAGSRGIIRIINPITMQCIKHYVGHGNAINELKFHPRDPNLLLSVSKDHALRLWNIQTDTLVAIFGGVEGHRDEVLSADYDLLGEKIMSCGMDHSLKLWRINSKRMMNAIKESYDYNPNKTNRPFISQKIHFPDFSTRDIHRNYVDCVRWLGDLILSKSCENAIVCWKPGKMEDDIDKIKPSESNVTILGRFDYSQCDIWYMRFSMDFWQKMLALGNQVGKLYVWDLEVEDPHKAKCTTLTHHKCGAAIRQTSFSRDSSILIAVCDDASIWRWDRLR
Sequence (Q15022 whole entry partner): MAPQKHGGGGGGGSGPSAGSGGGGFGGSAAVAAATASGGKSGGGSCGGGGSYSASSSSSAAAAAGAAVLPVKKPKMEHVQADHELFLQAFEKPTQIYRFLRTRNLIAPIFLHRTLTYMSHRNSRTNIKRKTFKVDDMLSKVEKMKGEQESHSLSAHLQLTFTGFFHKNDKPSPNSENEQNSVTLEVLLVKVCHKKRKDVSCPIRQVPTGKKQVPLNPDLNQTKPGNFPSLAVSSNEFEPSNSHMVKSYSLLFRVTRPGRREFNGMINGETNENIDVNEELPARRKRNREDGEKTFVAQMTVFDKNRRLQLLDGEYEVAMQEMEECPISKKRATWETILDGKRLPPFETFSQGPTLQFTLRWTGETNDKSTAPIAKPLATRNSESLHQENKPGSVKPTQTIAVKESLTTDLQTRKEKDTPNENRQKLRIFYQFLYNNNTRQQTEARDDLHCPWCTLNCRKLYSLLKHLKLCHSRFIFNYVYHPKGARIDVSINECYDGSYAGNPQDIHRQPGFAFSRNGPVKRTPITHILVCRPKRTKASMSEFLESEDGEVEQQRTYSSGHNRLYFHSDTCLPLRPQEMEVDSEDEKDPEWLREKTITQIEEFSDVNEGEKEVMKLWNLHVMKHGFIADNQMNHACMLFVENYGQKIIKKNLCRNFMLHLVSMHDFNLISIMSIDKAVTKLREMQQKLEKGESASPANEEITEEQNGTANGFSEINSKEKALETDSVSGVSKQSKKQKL
Sequence (Q6ZN18 whole entry partner): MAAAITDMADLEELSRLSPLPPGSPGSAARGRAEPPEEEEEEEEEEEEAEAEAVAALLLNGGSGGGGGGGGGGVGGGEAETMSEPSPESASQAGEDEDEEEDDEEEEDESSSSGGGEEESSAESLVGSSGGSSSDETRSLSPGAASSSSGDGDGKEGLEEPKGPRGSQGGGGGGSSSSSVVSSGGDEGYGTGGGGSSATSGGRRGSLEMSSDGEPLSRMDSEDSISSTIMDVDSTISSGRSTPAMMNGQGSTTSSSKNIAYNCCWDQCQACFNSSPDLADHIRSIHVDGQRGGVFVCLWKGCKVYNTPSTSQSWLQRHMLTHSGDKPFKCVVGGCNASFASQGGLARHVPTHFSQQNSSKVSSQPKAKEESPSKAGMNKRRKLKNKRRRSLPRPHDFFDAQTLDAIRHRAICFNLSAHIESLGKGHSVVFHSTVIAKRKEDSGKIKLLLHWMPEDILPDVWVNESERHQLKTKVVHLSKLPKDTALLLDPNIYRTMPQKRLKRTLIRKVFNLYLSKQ
Sequence (Q09028 whole entry partner): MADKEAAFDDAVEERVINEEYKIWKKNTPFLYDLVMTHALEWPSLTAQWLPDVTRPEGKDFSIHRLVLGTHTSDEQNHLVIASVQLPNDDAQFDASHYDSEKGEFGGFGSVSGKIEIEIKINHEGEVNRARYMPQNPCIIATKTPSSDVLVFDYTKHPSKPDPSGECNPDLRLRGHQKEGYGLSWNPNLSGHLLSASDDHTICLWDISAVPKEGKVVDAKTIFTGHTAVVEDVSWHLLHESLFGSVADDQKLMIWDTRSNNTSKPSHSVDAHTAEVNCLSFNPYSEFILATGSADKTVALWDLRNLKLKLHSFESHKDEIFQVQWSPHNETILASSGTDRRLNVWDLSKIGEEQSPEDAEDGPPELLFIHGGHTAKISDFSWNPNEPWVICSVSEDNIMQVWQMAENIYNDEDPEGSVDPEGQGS
Experiment: Hot Spot HMT assay: inhibition of PRC2 enzymatic activity (transfer of tritiated methyl from SAM to core histone, filter binding)
Format: biochemical
Settings: Inhibition of PRC2-mediated enzymatic activity; 10 nM PRC2 complex, 0.05 mg/ml core histone H3, 1 uM 3H-SAM, 1 hr at 30°C
IC50 listing for selected compounds.

>>> result("N#Cc1cn2c(NCc3c(F)ccc4c3CCO4)ncc(-c3ccc(C(F)(F)F)nc3)c2n1")
"100 to 500 nM"
>>> result("CN(C)C(=O)c1cc(Cl)c(-c2cnc(NCc3c(F)ccc4c3CCO4)n3cc(C#N)nc23)cc1F")
"< 100 nM"
>>> result("COC1CCN(Cc2ccc(-c3cnc(NCc4c(F)ccc5c4CCO5)n4cc(C#N)nc34)cc2)C1 (stereo not shown)")
"< 100 nM"
>>> result("CC(C)n1cc(-c2cnc(NCc3c(F)ccc4c3CCO4)n3cc(C#N)nc23)cn1")
"< 100 nM"
>>> result("Cc1ccc(C#N)cc1-c1cnc(NCc2c(F)ccc3c2CCO3)n2cc(C#N)nc12")
"100 to 500 nM"

// query IC50 value for entry N#Cc1cn2c(NCc3c(F)ccc4c3CCO4)ncc(-c3ccc(C(=O)O)cc3)c2n1
< 100 nM

# query: IC50 of entry CN(C)C(=O)c1cc(-c2cnc(NCc3c(F)ccc4c3CCO4)n3cc(C#N)nc23)n(C)n1
< 100 nM

Reference for the values: patent EP4043466B1
